// Ki collected for hCA II (Homo sapiens, UniProt P00918)

Solved cases below.
> print(dat)
                                   compound  measure.name  observed.measurement
1  O=C(C=Cc1ccc(C(F)(F)F)cc1)c1ccc2c(c1)oc(=O)n2CN1CCCCC1 [Compound 1e]            Ki               18.1 nM
2  O=C(C=Cc1ccc(C(F)(F)F)cc1)c1ccc2c(c1)oc(=O)n2CN1CCOCC1 [Compound 1f]            Ki                 41 nM
3  CN(C)Cn1c(=O)oc2cc(C(=O)C=Cc3ccc(C(F)(F)F)cc3)ccc21 [Compound 1a]            Ki               23.3 nM
4  O=C(/C=C/c1ccc(C(F)(F)F)cc1)c1ccc2[nH]c(=O)oc2c1 [Compound 1]            Ki               33.6 nM
5  CN1CCN(Cn2c(=O)oc3cc(C(=O)C=Cc4ccc(C(F)(F)F)cc4)ccc32)CC1 [Compound 1g]            Ki                8.6 nM

Return reported Ki values for all items listed beneath this line.
1. O=C(C=Cc1ccc(C(F)(F)F)cc1)c1ccc2c(c1)oc(=O)n2CN1CCCC1 [Compound 1d]
2. CCCN(CCC)Cn1c(=O)oc2cc(C(=O)C=Cc3ccc(C(F)(F)F)cc3)ccc21 [Compound 1c]

1: 19 nM; 2: 24.6 nM

Given the compound CCN(CC)Cn1c(=O)oc2cc(C(=O)C=Cc3ccc(C(F)(F)F)cc3)ccc21 [Compound 1b] , what is its reported Ki? 37.6 nM

----------
// Ki collected for hCA I (Homo sapiens, UniProt P00915)
One number for each entry, in µM.

Solved cases below.
> print(dat)
                           structure.smiles  measurement.units  observed.measurement
1  CN1CCN(Cn2c(=O)oc3cc(C(=O)C=Cc4ccc(C(F)(F)F)cc4)ccc32)CC1                 µM                 0.053
2  CN(C)Cn1c(=O)oc2cc(C(=O)C=Cc3ccc(C(F)(F)F)cc3)ccc21                 µM                0.0314
3  O=C(/C=C/c1ccc(C(F)(F)F)cc1)c1ccc2[nH]c(=O)oc2c1                 µM                 0.154
4  O=C(C=Cc1ccc(C(F)(F)F)cc1)c1ccc2c(c1)oc(=O)n2CN1CCCC1                 µM                0.0123
5  CCCN(CCC)Cn1c(=O)oc2cc(C(=O)C=Cc3ccc(C(F)(F)F)cc3)ccc21                 µM                0.0223

Return reported Ki values for all items listed beneath this line.
1. CCN(CC)Cn1c(=O)oc2cc(C(=O)C=Cc3ccc(C(F)(F)F)cc3)ccc21
2. O=C(C=Cc1ccc(C(F)(F)F)cc1)c1ccc2c(c1)oc(=O)n2CN1CCCCC1
3. O=C(C=Cc1ccc(C(F)(F)F)cc1)c1ccc2c(c1)oc(=O)n2CN1CCOCC1

[0.0368, 0.0276, 0.0204]

----------
Record form. Attribute: Ki. Fill in for each entry.
- Test target: AChE (Electrophorus electricus)
- Sequence (O42275 24-633): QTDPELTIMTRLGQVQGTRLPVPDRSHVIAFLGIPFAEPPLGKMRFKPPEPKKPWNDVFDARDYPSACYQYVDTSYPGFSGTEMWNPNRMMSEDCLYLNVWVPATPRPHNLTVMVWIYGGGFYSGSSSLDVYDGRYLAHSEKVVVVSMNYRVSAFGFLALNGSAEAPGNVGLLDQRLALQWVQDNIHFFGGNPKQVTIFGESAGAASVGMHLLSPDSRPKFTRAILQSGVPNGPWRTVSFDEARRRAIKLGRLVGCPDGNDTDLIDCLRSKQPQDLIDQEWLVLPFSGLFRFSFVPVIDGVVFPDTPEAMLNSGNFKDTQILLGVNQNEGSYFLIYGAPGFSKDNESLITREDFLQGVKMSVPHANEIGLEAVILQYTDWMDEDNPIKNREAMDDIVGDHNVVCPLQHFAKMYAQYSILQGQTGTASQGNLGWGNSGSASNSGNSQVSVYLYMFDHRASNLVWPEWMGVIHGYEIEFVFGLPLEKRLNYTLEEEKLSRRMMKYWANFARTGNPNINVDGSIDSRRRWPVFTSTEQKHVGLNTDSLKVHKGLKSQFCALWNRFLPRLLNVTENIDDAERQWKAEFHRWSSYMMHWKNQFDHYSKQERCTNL

Solved cases below.
> print(dat)
                                   compound  measure.name  observed.measurement
1  CN1CCN(Cn2c(=O)oc3cc(C(=O)C=Cc4ccc(C(F)(F)F)cc4)ccc32)CC1 [Compound 1g]            Ki             0.0485 µM
2  O=C(C=Cc1ccc(C(F)(F)F)cc1)c1ccc2c(c1)oc(=O)n2CN1CCCCC1 [Compound 1e]            Ki              0.084 µM
3  O=C(C=Cc1ccc(C(F)(F)F)cc1)c1ccc2c(c1)oc(=O)n2CN1CCCC1 [Compound 1d]            Ki             0.0976 µM
4  CCN(CC)Cn1c(=O)oc2cc(C(=O)C=Cc3ccc(C(F)(F)F)cc3)ccc21 [Compound 1b]            Ki              0.142 µM
5  CN(C)Cn1c(=O)oc2cc(C(=O)C=Cc3ccc(C(F)(F)F)cc3)ccc21 [Compound 1a]            Ki               0.13 µM

Return reported Ki values for all items listed beneath this line.
1. O=C(/C=C/c1ccc(C(F)(F)F)cc1)c1ccc2[nH]c(=O)oc2c1 [Compound 1]
2. O=C(C=Cc1ccc(C(F)(F)F)cc1)c1ccc2c(c1)oc(=O)n2CN1CCOCC1 [Compound 1f]
3. CCCN(CCC)Cn1c(=O)oc2cc(C(=O)C=Cc3ccc(C(F)(F)F)cc3)ccc21 [Compound 1c]

1: 0.159 µM; 2: 0.0352 µM; 3: 0.116 µM
